Test system: K-562 leukemia
Assay: NCI-60 one-dose screen, 48 h
Details: 10 µM unless noted
Method: Cells are grown in 96 well plates and exposed to the test compound for 48 hours. Compounds are tested at a single concentration, which is 10^-5 M for most compounds. The reported endpoint is percent growth (GI% or GIPRCNT), where numbers from 0 - 100% represent growth inhibition, and numbers from -100% - 0 represent cell death. For example, a value of 40 represents 60% growth inhibition. A value of 0 means no net growth occurred over the course of the experiment. […]
Compounds without any hit were thinned out: in the full panel of roughly 83,000, 20% have a hit. Calls of active or inactive are those of the source. Rule for the calls: active = growth percent below 10; inactive = the rest.
Respond only with the outcome that fits, drawn from 1 (active), -1 (inactive)

As a guide, the following entries are already answered.
compound=O=C(/C=C/c1cccs1)Nc1ncc(Cc2ccccc2F)s1 class_name=-1
compound=Nc1nc2ccccc2c2c1S(=O)(=O)c1ccc(Cl)cc1C2=O class_name=-1
compound=C=C1C(=O)O[C@H]2[C@H]1CC/C(COC(=O)C(=O)c1cn(C)c3ccc(Cl)cc13)=C\CC[C@@]1(C)O[C@@H]21 class_name=1

Which outcome was assigned to COc1ccc(/C=N/C2=C(C#N)C(c3ccccc3)c3ccc4ccccc4c3O2)cc1 (stereo not given) in this test? -1

Which outcome was entered for the compound `COc1ccc(OC)c(Nc2nnc(-c3ccc(O)c(OC)c3)o2)c1` in this test? -1

Called result for `C=CCc1c(O)c(C(=O)/C=C/c2ccccc2)c(OC)c2ccoc12` -1

Hello, I am checking results. What call was entered for `Cc1cc(N2CCN(CCNc3ccnc4cc(Cl)ccc34)CC2)nc(N2CCOCC2)n1` ? -1

---

system: LOX IMVI melanoma; experiment: NCI-60 one-dose screen, 48 h (100 = growth as untreated, 0 = no growth, -100 = all killed); conditions: 10 µM unless noted
The panel holds about 83,000 compounds, 20% with a hit somewhere; the sample as a whole holds those more often.
measurement.kind: growth (%)
Reply numerically in %, unit not repeated.

molecule=CCN(CC)CCCCCNc1cc(OC(=O)c2ccc(Cl)cc2)cc2cccnc12 measurement_kind=growth unit_of_measurement=% measurement=106

Name the value of growth reported for `CCCCCCCC[C@@H]1N[C@@H](C(=O)OC)Cc2c1[nH]c1ccccc21` when tested on LOX IMVI melanoma. 93.1

State the measured growth (LOX IMVI melanoma) of `C=C(C)[C@@H]1CCC[C@]2(COS(=O)(=O)c3ccc(C)cc3)CC[C@]3(C)[C@@H](CC[C@@H]4[C@@]5(C)CCCNC(C)(C)[C@@H]5CC[C@]43C)[C@@H]12` -86.5

---

tested on: HCT-15 colon; assay: NCI-60 one-dose screen, 48 h; settings: 10 µM unless noted
The panel holds about 83,000 compounds, 20% with a hit somewhere; the sample as a whole holds those more often. Active and inactive are the calls of the source. How the source made its calls: active means growth percent below 10; inactive means the rest.
Use one of these outcomes when replying: TRUE (active), FALSE (inactive)

A selection of reference data follows.
compound=N#Cc1nc(-c2ccccc2)oc1S(=O)(=O)N1CCN(c2ccccc2)CC1 class_name=FALSE
compound=Nc1n[nH]c2cccc(C#Cc3cccc(NC(=O)c4cc(F)cc(C(F)(F)F)c4)c3)c12 class_name=FALSE
compound=Nc1cc(C(=O)NC[C@H]2CN(c3ccc(N4CCC(C(=O)O)CC4)cc3)C(=O)O2)ccc1Cl class_name=FALSE
compound=COc1c(B(O)O)cccc1-c1nc2c(F)cc3[nH]ncc3c2c2c1CCCC2 class_name=TRUE

Please state the recorded outcome for this compound: `C#COc1cccc(Nc2c(C#N)cnc3ncc(NC(=O)CCl)cc23)c1` FALSE

Could you kindly confirm the outcome this assay logged for `Clc1ccc2c(c1)C(c1c[nH]c3ccccc13)(c1c[nH]c3ccccc13)CCO2` ? FALSE

What is the recorded call for this compound in the test? `Cc1ccc(-c2nc(N3CCCNCC3)c3oc(-c4ccc(C)cc4)nc3n2)cc1` TRUE

Answer briefly: the call reported for `CCN(CC)c1ccc(\C=N/N=C(N)/C(N)=N\N=C/c2ccc(N(CC)CC)cc2)cc1` in this assay. FALSE

Values were extracted from PubChem BioAssay (NCI).
